Below, each of the variants is paired with its reported protein stability index value.
B1: APBB1IP (parent)
chain: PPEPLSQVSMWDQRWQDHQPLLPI

- Variants of: B1
- measurement_protocol: protein stability index of a GFP-peptide fusion (GPS, HEK-293T) (PSI 1-6); higher = more stable;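 also: lentivirally expressed fusions sorted by FACS into six bins by GFP to DsRed ratio, PSI derived from sequencing read proportions per bin multiplied by bin number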
- conditions_used: c terminus: a fixed tail appended

item_sequence	protein stability index
PPEPLSQVSMWDQRWQDHQPLFPI [L22F]	2.77
PPEPLSQVSMWDQRKQDHQPLLPI [W15K]	4.05
PPEPLSRVSMWDQRWQDHQPLLPI [Q7R]	2.93
PPEPLSQVSMWDQRWQDHQELLPI [P20E]	3.29
PPEPLSQVSQWDQRWQDHQPLLPI [M10Q]	3.2
PPLPLSQVSMWDQRWQDHQPLLPI [E3L]	3.07
PPEPLSHVSMWDQRWQDHQPLLPI [Q7H]	3.61
PPEPLCQVSMWDQRWQDHQPLLPI [S6C]	2.46
PPEALSQVSMWDQRWQDHQPLLPI [P4A]	3.05
PPEPLSQQSMWDQRWQDHQPLLPI [V8Q]	2.9
PPEPLSQVHMWDQRWQDHQPLLPI [S9H]	3.22
PQEPLSQVSMWDQRWQDHQPLLPI [P2Q]	2.52
PPEPLSQVSMWDQRWMDHQPLLPI [Q16M]	2.99
PPEPLPQVSMWDQRWQDHQPLLPI [S6P]	3.65
PPEPLSQTSMWDQRWQDHQPLLPI [V8T]	2.9
HPEPLSQVSMWDQRWQDHQPLLPI [P1H]	3.07
PPEPLSDVSMWDQRWQDHQPLLPI [Q7D]	2.97
PPEPLSQVSMWDQRWHDHQPLLPI [Q16H]	2.53
PPEPLSQVSMWLQRWQDHQPLLPI [D12L]	2.22
PPEPLSQVGMWDQRWQDHQPLLPI [S9G]	3.35
PPEPLSQVSMWDQRWQTHQPLLPI [D17T]	2.57
PPEPLSQVSMWDQRWQDHGPLLPI [Q19G]	3.33
NPEPLSQVSMWDQRWQDHQPLLPI [P1N]	2.87
PPEPLSQWSMWDQRWQDHQPLLPI [V8W]	2.21
PPEPLSQVSMTDQRWQDHQPLLPI [W11T]	3.73
PPEPLSQVSMWDQRWQDHQPLLMI [P23M]	2.08
PPEPLSQVSHWDQRWQDHQPLLPI [M10H]	3.42
PPEPLSQVNMWDQRWQDHQPLLPI [S9N]	3.25
PPEPLQQVSMWDQRWQDHQPLLPI [S6Q]	3.28
PPEPLSQVSMWDQRWQDHQPLVPI [L22V]	3.2
PPEPLSQVSMWRQRWQDHQPLLPI [D12R]	2.9
PPEPLSQVSMWDQRWLDHQPLLPI [Q16L]	2.46
PPEPLSQVSMWDHRWQDHQPLLPI [Q13H]	2.79
PPEPLSQVSMWDQRWWDHQPLLPI [Q16W]	2.73
PPEPLSEVSMWDQRWQDHQPLLPI [Q7E]	3.56
PPEPLSQVSMSDQRWQDHQPLLPI [W11S]	4.04
PPEHLSQVSMWDQRWQDHQPLLPI [P4H]	3.22
PPEPLSQVSMWDQRTQDHQPLLPI [W15T]	4.39
PPEPLSQVSMWDQRWDDHQPLLPI [Q16D]	3.52
PPEPLSQVSMWDQRSQDHQPLLPI [W15S]	3.95
PPEPLSQVSMWDQRWQDHQPLAPI [L22A]	3.4
PPEPLSAVSMWDQRWQDHQPLLPI [Q7A]	3.47
PPEPLSQVSMWDQRWQDHQPLLPT [I24T]	3.62
PPEPLSQVSMWDQMWQDHQPLLPI [R14M]	2.68
PPEPLSQVSMWDQRWQLHQPLLPI [D17L]	3.26
PPEPLSQVSMWDQRLQDHQPLLPI [W15L]	3.28
